Hello, the source for this data is ChEMBL document CHEMBL3217461, in case you need it.

Some compounds, each annotated with its measured Activity.
System: A549
Assay: Cell cycle arrest in human A549 cells assessed as accumulation at G2/M phase at 2 uM after 24 hrs using propidium iodide staining by flow cytometer analysis (reference value: 13.98%)
Type: functional

compound: COc1ccc(/C=C\c2cc(OC)c(OC)c(OC)c2)cc1O
Activity: 84.71%

compound: COc1ccc(C2=NOC(COc3ccc(-c4nnnn4-c4cc(OC)c(OC)c(OC)c4)cc3N)C2)cc1[N+](=O)[O-] (stereo not drawn)
Activity: 18.08%

compound: COc1cc(-n2nnnc2-c2ccc(OCC3CC(c4ccc(OC)c(OC)c4OC)=NO3)c(N)c2)cc(OC)c1OC (stereo not drawn)
Activity: 20.34%

compound: COc1cc(C2=NOC(COc3ccc(-c4nnnn4-c4cc(OC)c(OC)c(OC)c4)cc3N)C2)ccc1O (stereo not drawn)
Activity: 21.18%

compound: COc1cc(-n2nnnc2-c2ccc(OCC3CC(c4ccccc4F)=NO3)c(N)c2)cc(OC)c1OC (stereo not drawn)
Activity: 79.42%

compound: COc1ccc(OC)c(C2=NOC(COc3ccc(-c4nnnn4-c4cc(OC)c(OC)c(OC)c4)cc3N)C2)c1 (stereo not drawn)
Activity: 18.63%

compound: COc1cc(-n2nnnc2-c2ccc(OCC3CC(c4ccc(C(F)(F)F)cc4)=NO3)c(N)c2)cc(OC)c1OC (stereo not drawn)
Activity: 45.61%

compound: COc1cc(-n2nnnc2-c2ccc(OCC3CC(c4cccc(Cl)c4)=NO3)c(N)c2)cc(OC)c1OC (stereo not drawn)
Activity: 38.3%
